system: RepA-LacZ (SLI-SLIII interaction of RepA mRNA), plasmid pMU1550; assay: RepA-LacZ reporter gene assay; format: cell-based; details: E. coli JP3923 harboring pMU1550, various concentrations, OD600 ~0.6
READOUT NAME: reporter gene signal (Miller units of β-galactosidase)

MOLECULE	RESULT
NC[C@H]1O[C@H](O[C@H]2[C@H](O)[C@@H](O[C@H]3O[C@H](CO)[C@@H](O)[C@H](N)[C@H]3O)[C@H](N)C[C@@H]2N)[C@H](N)[C@@H](O)[C@@H]1O [kanamycin B]	dose dependent decrease
CN[C@@H]1[C@@H](O[C@H]2O[C@H](CO)[C@@H](N)[C@H](O)[C@H]2O)OC2C[C@@H](N)[C@@H](O[C@H]3[C@H](O)[C@@H](O)[C@H](N)C[C@@H]3N)OC2[C@@H]1O (stereo partly shown) [apramycin]	dose dependent decrease
NC[C@@H]1O[C@H](O[C@H]2[C@@H](O)[C@H](O[C@@H]3[C@@H](O)[C@H](N)C[C@H](N)[C@H]3O[C@H]3O[C@H](CO)[C@@H](O)[C@H](O)[C@H]3N)O[C@@H]2CO)[C@H](N)[C@@H](O)[C@@H]1O [paromomycin I]	dose dependent decrease
